Test Target: CDK4 (Homo sapiens, UniProt P11802)
Sequence (P11802 whole entry): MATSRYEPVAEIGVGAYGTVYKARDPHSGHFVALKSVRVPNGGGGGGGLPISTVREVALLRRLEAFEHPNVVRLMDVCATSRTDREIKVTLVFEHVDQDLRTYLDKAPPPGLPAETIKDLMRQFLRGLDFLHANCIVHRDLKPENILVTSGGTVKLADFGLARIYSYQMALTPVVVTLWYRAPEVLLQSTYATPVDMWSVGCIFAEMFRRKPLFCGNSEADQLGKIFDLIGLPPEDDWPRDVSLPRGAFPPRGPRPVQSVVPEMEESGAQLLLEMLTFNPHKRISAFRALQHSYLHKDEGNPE
Sequence (P24385 whole entry partner): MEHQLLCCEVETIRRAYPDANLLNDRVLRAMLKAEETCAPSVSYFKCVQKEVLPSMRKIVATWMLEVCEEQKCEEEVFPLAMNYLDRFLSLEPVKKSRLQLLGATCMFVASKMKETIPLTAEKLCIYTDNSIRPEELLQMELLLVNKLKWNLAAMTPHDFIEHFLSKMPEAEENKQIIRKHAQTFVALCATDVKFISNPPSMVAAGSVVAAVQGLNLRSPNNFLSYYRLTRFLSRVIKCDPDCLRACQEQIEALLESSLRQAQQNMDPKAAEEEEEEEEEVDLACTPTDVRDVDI
Assay Procedure: CDK4 HTRF assay
Assay type: biochemical
Run Conditions: Table E; read-out: CDK4 HTRF/IC50 [umol l − 1]
Quantity Name: IC50

Enquiry: Please supply the value of reported IC50 for the item CCC(CC)n1c(C(=O)Nc2ccccc2)cc2cnc(Nc3ccc(N4CCNCC4)cc3)nc21 [Example 345]
Return: < 1 µM

Enquiry: Please supply the value of reported IC50 for the item CCC(CC)n1c(C(=O)N(C)C)cc2cnc(Nc3ccc(CN4CCN(C(=O)OC(C)(C)C)CC4)cc3)nc21 [Example 465]
Return: < 1 µM

Enquiry: Please supply the value of reported IC50 for the item Cc1cn(C2CCCC2)c2nc(Nc3ccc(N4CCOCC4)cc3)ncc12 [Example 305]
Return: > 10 µM

Enquiry: Please supply the value of reported IC50 for the item CCC(CC)n1c(C=NOC)cc2cnc(Nc3ccc(N4CCN(C(C)=O)CC4)cc3)nc21 [Example 364]
Return: < 1 µM

Enquiry: Please supply the value of reported IC50 for the item CCN(CC)c1ccc(Nc2ncc3c(C)cn(C4CCCC4)c3n2)cc1 [Example 457]
Return: > 10 µM

Enquiry: Please supply the value of reported IC50 for the item Cc1cn(C2CCCC2)c2nc(Nc3ccccc3Cl)ncc12 [Example 443]
Return: 10 µM

Enquiry: Please supply the value of reported IC50 for the item CCC(CC)n1c(C(=O)N(C)C)cc2cnc(Nc3ccc(CN4CCNCC4)cc3)nc21 [Example 342]
Return: < 1 µM

Enquiry: Please supply the value of reported IC50 for the item CCC(CC)n1c(C(=O)Nc2ccc(C)cc2)cc2cnc(Nc3ccc(N4CCNCC4)cc3)nc21 [Example 348]
Return: < 1 µM

Enquiry: Please supply the value of reported IC50 for the item CCC(CC)n1c(C(=O)Nc2ccncc2)cc2cnc(Nc3ccc(N4CCNCC4)cc3)nc21 [Example 353]
Return: < 1 µM

Enquiry: Please supply the value of reported IC50 for the item CC(=O)c1c(C)n(C2CCCC2)c2nc(Nc3ccc(N4CCNCC4)cc3)ncc12 [Example 333]
Return: 10 µM

Enquiry: Please supply the value of reported IC50 for the item Cc1c(C(=O)O)n(C2CCCC2)c2nc(Nc3ccc(N4CCNCC4)cn3)ncc12 [Example 444]
Return: < 1 µM

Enquiry: Please supply the value of reported IC50 for the item Cc1cn(C2CCCC2)c2nc(Nc3ccc(N4CCN(S(C)(=O)=O)CC4)cn3)ncc12 [Example 287]
Return: 10 µM

Enquiry: Please supply the value of reported IC50 for the item CCC(CC)n1c(COC)cc2cnc(Nc3ccc(N4CCNCC4)cc3)nc21 [Example 382]
Return: < 1 µM

Enquiry: Please supply the value of reported IC50 for the item c1cc(N2CCNCC2)ccc1Nc1ncc2ccn(C3CCCC3)c2n1 [Example 256]
Return: < 1 µM

Enquiry: Please supply the value of reported IC50 for the item CCC(CC)n1c(C(=O)N(C)C)cc2cnc(Nc3ccc(N4CCNCC4)cc3)nc21 [Example 335]
Return: < 1 µM

Enquiry: Please supply the value of reported IC50 for the item CCC(CC)n1c(C(C)O)cc2cnc(Nc3ccc(N4CCN(C(C)=O)CC4)cc3)nc21 (stereo not shown) [Example 376]
Return: < 1 µM

Enquiry: Please supply the value of reported IC50 for the item CC1CCC(n2ccc3cnc(Nc4ccc(N5CCNCC5)cc4)nc32)CC1 (stereo not shown) [Example 240]
Return: < 1 µM

Enquiry: Please supply the value of reported IC50 for the item CCC(CC)n1c(C(C)=O)cc2cnc(Nc3ccc(N4CCN(C(C)=O)CC4)cc3)nc21 [Example 377]
Return: < 1 µM

Enquiry: Please supply the value of reported IC50 for the item Cc1c(C#N)n(C2CCCC2)c2nc(Nc3ccc(N4CCNCC4)cn3)ncc12 [Example 393]
Return: < 1 µM

Enquiry: Please supply the value of reported IC50 for the item CN(C)C(=O)c1cc2cnc(Nc3ccc(N4CCNCC4)cc3)nc2n1C1CCCC1 [Example 338]
Return: < 1 µM

Enquiry: Please supply the value of reported IC50 for the item Cc1cn(C2CCCC2)c2nc(Nc3ccccc3[N+](=O)[O-])ncc12 [Example 295]
Return: 10 µM

Enquiry: Please supply the value of reported IC50 for the item CCC(C)n1ccc2cnc(Nc3ccc(N4CCNCC4)cc3)nc21 (stereo not shown) [Example 230]
Return: < 1 µM

Enquiry: Please supply the value of reported IC50 for the item Cc1cn(C2CCCC2)c2nc(Nc3ccccc3)ncc12 [Example 277]
Return: > 10 µM

Enquiry: Please supply the value of reported IC50 for the item Cc1c(C#N)n(C2CCCC2)c2nc(Nc3ccc(N4CCC(N(C)C)CC4)cc3)ncc12 [Example 395]
Return: < 1 µM

Enquiry: Please supply the value of reported IC50 for the item CN(C)C(=O)c1cc2cnc(Nc3ccc(CN4CCOCC4)cc3)nc2n1C1CCCC1 [Example 340]
Return: < 1 µM

Enquiry: Please supply the value of reported IC50 for the item Cc1cn(C2CC2)c2nc(Nc3ccc(N4CCNCC4)cc3)ncc12 [Example 276]
Return: > 10 µM

Enquiry: Please supply the value of reported IC50 for the item Cc1nnc(-c2c(C)c3cnc(Nc4ccc(N5CCNCC5)cn4)nc3n2C2CCCC2)o1 [Example 386]
Return: < 1 µM

Enquiry: Please supply the value of reported IC50 for the item CCC(CC)n1c(C=O)cc2cnc(Nc3ccc(N4CCN(C(C)=O)CC4)cc3)nc21 [Example 361]
Return: < 1 µM

Enquiry: Please supply the value of reported IC50 for the item Cc1cn(C2CCCC2)c2nc(NN3CCN(C)CC3)ncc12 [Example 306]
Return: > 10 µM

Enquiry: Please supply the value of reported IC50 for the item COC(=O)c1c(C)n(C2CCCC2)c2nc(Nc3ccc(N4CCNCC4)cc3)ncc12 [Example 408]
Return: > 10 µM

Enquiry: Please supply the value of reported IC50 for the item Cc1c(C(N)=O)n(C2CCCC2)c2nc(Nc3ccc(N4CCNCC4)cn3)ncc12 [Example 391]
Return: < 1 µM

Enquiry: Please supply the value of reported IC50 for the item Cc1cn(C2CCC(O)C2)c2nc(Nc3ccc(CN4CCOCC4)cc3)ncc12 (stereo not shown) [Example 315]
Return: < 1 µM

Enquiry: Please supply the value of reported IC50 for the item Cc1cn(C2CCCCC2)c2nc(Nc3ccc4[nH]ncc4c3)ncc12 [Example 280]
Return: > 10 µM

Enquiry: Please supply the value of reported IC50 for the item CC1CCCC(n2ccc3cnc(Nc4ccc(N5CCNCC5)cc4)nc32)C1 (stereo not shown) [Example 242]
Return: < 1 µM

Attribution: patent US20120207763A1
